- Test system: vancomycin-sensitive Staphylococcus aureus Newman strain
- assay procedure: In vitro antibacterial activity assay (MIC, CLSI dilution method)
- Type: cell-based
- condition context: Staphylococcus aureus; S. aureus Newman, 37° C., 16 h

molecule	measurement qualifier	MIC (µg/mL)
CCCCCCCCCCNCCN[C@@]1(C)C[C@H](O[C@H]2[C@H](Oc3c4cc5cc3Oc3ccc(cc3Cl)[C@@H](O)[C@@H](NC(=O)[C@@H](CC(C)C)NC)C(=O)N[C@@H](CC(N)=O)C(=O)N[C@H]5C(=O)N[C@H]3C(=O)N[C@H](C(=O)N[C@H](C(=O)O)c5cc(O)c(CNCP(=O)(O)O)c(O)c5-c5cc3ccc5O)[C@H](O)c3ccc(c(Cl)c3)O4)O[C@H](CO)[C@@H](O)[C@@H]2O)O[C@@H](C)[C@H]1O [Tela., telavancin, reference compound]	<	0.0625
CN[C@H](CC(C)C)C(=O)N[C@H]1C(=O)N[C@@H](CC(N)=O)C(=O)N[C@H]2C(=O)N[C@@H]3C(=O)N[C@H](C(=O)N[C@H](C(=O)NCCCNC(=O)[C@H](O)[C@@H](O)[C@H](O)[C@H](O)CO)c4cc(O)cc(O)c4-c4cc3ccc4O)[C@H](O)c3ccc(c(Cl)c3)Oc3cc2cc(c3OC2O[C@H](CO)C(O)C(O)[C@H]2O[C@H]2CC(C)(NCc3ccc(-c4ccc(Cl)cc4)cc3)[C@H](O)C(C)O2)Oc2ccc(cc2Cl)[C@H]1O (stereo partly drawn)	=	2
CN[C@H](CC(C)C)C(=O)N[C@H]1C(=O)N[C@@H](CC(N)=O)C(=O)N[C@H]2C(=O)N[C@@H]3C(=O)N[C@H](C(=O)NC(C(=O)NCCCN(C)C)c4cc(O)cc(O)c4-c4cc3ccc4O)[C@H](O)c3ccc(c(Cl)c3)Oc3cc2cc(c3OC2O[C@H](CO)C(O)C(O)[C@H]2O[C@H]2CC(C)(NCc3ccc(-c4ccc(Cl)cc4)cc3)[C@H](O)C(C)O2)Oc2ccc(cc2Cl)[C@H]1O (stereo partly drawn)	=	1

====

- Test system: vancomycin-sensitive Staphylococcus aureus Newman strain
- assay procedure: In vitro antibacterial activity assay (MIC, CLSI dilution method)
- Format: cell-based
- condition context: Staphylococcus aureus, NEWMAN, 16 h, S. aureus Newman, 37° C.
Listed here are molecules together with their documented MIC.

molecule	study target	MIC (µg/mL)
CCCCOc1ccc(CNC2(C)C[C@H](O[C@H]3C(Oc4c5cc6cc4Oc4ccc(cc4Cl)[C@@H](O)[C@@H](NC(=O)[C@@H](CC(C)C)NC)C(=O)N[C@@H](CC(N)=O)C(=O)N[C@H]6C(=O)N[C@H]4C(=O)N[C@H](C(=O)N[C@H](C(=O)O)c6cc(O)c(CNCCCNC(=O)[C@H](O)[C@@H](O)[C@H](O)[C@H](O)CO)c(O)c6-c6cc4ccc6O)[C@H](O)c4ccc(c(Cl)c4)O5)O[C@H](CO)C(O)C3O)CC(C)[C@H]2O)cc1 (some centres unmarked)	vancomycin-sensitive Staphylococcus aureus Newman strain	1
CCCCCCCCCCNCCNC1(C)C[C@H](O[C@H]2C(Oc3c4cc5cc3Oc3ccc(cc3Cl)[C@@H](O)[C@@H](NC(=O)[C@@H](CC(C)C)NC)C(=O)N[C@@H](CC(N)=O)C(=O)N[C@H]5C(=O)N[C@H]3C(=O)N[C@H](C(=O)N[C@H](C(=O)O)c5cc(O)c(CNCCOC6OC(CO)[C@@H](O)C(O)C6O)c(O)c5-c5cc3ccc5O)[C@H](O)c3ccc(c(Cl)c3)O4)O[C@H](CO)C(O)C2O)OC(C)[C@H]1O (some centres unmarked)	vancomycin-sensitive Staphylococcus aureus Newman strain	1
CCCCCCCCCCNCCNC1(C)C[C@H](O[C@H]2C(Oc3c4cc5cc3Oc3ccc(cc3Cl)[C@@H](O)[C@@H](NC(=O)[C@@H](CC(C)C)NC)C(=O)N[C@@H](CC(N)=O)C(=O)N[C@H]5C(=O)N[C@H]3C(=O)N[C@H](C(=O)N[C@H](C(=O)O)c5cc(O)c(CNCCCNC(=O)[C@H](O)[C@@H](O)[C@H](O)[C@H](O)CO)c(O)c5-c5cc3ccc5O)[C@H](O)c3ccc(c(Cl)c3)O4)O[C@H](CO)C(O)C2O)OC(C)[C@H]1O (some centres unmarked)	vancomycin-sensitive Staphylococcus aureus Newman strain	0.5
CCCCCCCCCCNC1(C)C[C@H](O[C@H]2C(Oc3c4cc5cc3Oc3ccc(cc3Cl)[C@@H](O)[C@@H](NC(=O)[C@@H](CC(C)C)NC)C(=O)N[C@@H](CC(N)=O)C(=O)N[C@H]5C(=O)N[C@H]3C(=O)N[C@H](C(=O)N[C@H](C(=O)O)c5cc(O)c(CNCCCNC(=O)[C@H](O)[C@@H](O)[C@H](O)[C@H](O)CO)c(O)c5-c5cc3ccc5O)[C@H](O)c3ccc(c(Cl)c3)O4)O[C@H](CO)C(O)C2O)CC(C)[C@H]1O (some centres unmarked)	vancomycin-sensitive Staphylococcus aureus Newman strain	0.125
C#Cc1ccc(CNC2(C)C[C@H](O[C@H]3C(Oc4c5cc6cc4Oc4ccc(cc4Cl)[C@@H](O)[C@@H](NC(=O)[C@@H](CC(C)C)NC)C(=O)N[C@@H](CC(N)=O)C(=O)N[C@H]6C(=O)N[C@H]4C(=O)N[C@H](C(=O)N[C@H](C(=O)O)c6cc(O)c(CNCCCNC(=O)[C@H](O)[C@@H](O)[C@H](O)[C@H](O)CO)c(O)c6-c6cc4ccc6O)[C@H](O)c4ccc(c(Cl)c4)O5)O[C@H](CO)C(O)C3O)CC(C)[C@H]2O)cc1 (some centres unmarked)	vancomycin-sensitive Staphylococcus aureus Newman strain	4
